# ASSAYED TARGET: Fibroblast growth factor 22 (Homo sapiens)
# ASSAY COMMENT: binders of human FGF22 protein, primary screen, FGF22 synaptogenesis inhibitor project, biophysical, thermal shift, single point (AID 651658)
# CONDITIONS USED: recombinant FGF22 thermal shift, SYPRO orange fluorescence; at 9.99 µM; percent of sucrose octasulfate shift, DMSO zero
Hit rate of the full screen: of about 340,000 compounds, about 5,100 (1.5%) were called active.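 The calls were made as follows: active = mean Tm shift, scaled 0 neutral to 100 positive control, at about 1.3% or above, every replicate too (limit read from the data); inconclusive = no clear call, values can overlap the other calls; inactive = the rest.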 The sample as a whole holds a higher share of actives than the screen did.
Lab note: assign the record to one of TRUE (active), FALSE (inactive)

Recorded test outcome, item CCCC#Cc1ccc2c(c1)O[C@@H](CN(C)C(=O)c1cccnc1)[C@H](C)CN([C@H](C)CO)S2(=O)=O
FALSE

Next: COCc1c(N)c(C)nc(Cl)c1C#N
TRUE

Next: CO[C@@H]1CN(C)C(=O)c2ccc(NC(=O)Nc3ccccc3)cc2OC[C@@H](C)N(C(=O)CN(C)C)C[C@H]1C
FALSE

Next: COC(=O)c1ccc(CN2CCN(CCCc3ccccc3)C(CCO)C2)cc1 (stereo not given)
TRUE

Next: COc1cc(CN(C)Cc2nc3cc(C(F)(F)F)ccc3c(=O)[nH]2)ccc1OC(F)F
FALSE

Next: O=C(C[C@H]1CC[C@H]2[C@@H](COC[C@H](O)CN2S(=O)(=O)c2cccc(Cl)c2)O1)Nc1ccccc1
TRUE

Next: CCCNC(=O)N1C[C@@H]2[C@H](c3ccccc31)[C@@H](CO)N2C(=O)NC(C)C
FALSE

Next: COc1cc2nc(CN(C)Cc3ccc(F)cc3)[nH]c(=O)c2cc1OC
FALSE

Next: CN(C(=O)c1cc2c(=O)n3ccccc3nc2s1)C1CCCCC1
FALSE

Next: Cc1nc(Cl)c(C#N)c2c1CCCC2
FALSE

Next: CO[C@@H]1CN(C)C(=O)c2cc(NC(=O)C3CCCC3)ccc2OC[C@@H](C)N(C(=O)Nc2ccc(C(F)(F)F)cc2)C[C@H]1C
FALSE

Next: COC(=O)[C@@H]1[C@@H](CO)[C@@H]2Cn3c(ccc(-c4ccc(OC)cc4)c3=O)[C@@H]2N1C
FALSE

Next: C[C@H]1CN([C@@H](C)CO)S(=O)(=O)c2ccc(C3=CCCC3)cc2O[C@H]1CN(C)C(=O)Cc1ccncc1
FALSE

Next: Cc1ccc(S(=O)(=O)N[C@H]2CCC[C@@H]2O)cc1
FALSE

Next: C[C@@H]1CCCCO[C@@H](CN(C)C(=O)Nc2ccc(C(F)(F)F)cc2)[C@H](C)CN([C@@H](C)CO)C(=O)c2cc(N(C)C)ccc2O1
FALSE

Next: CN(C)C(=O)C[C@@H]1CC[C@H]2[C@@H](COC[C@H](O)CN2S(=O)(=O)c2ccccc2)O1
FALSE

Next: O=C(CN1CCOCC1)NC[C@@H]1N[C@@H](CO)[C@@H]1c1ccc(-c2ccccc2)cc1
FALSE

Next: Cc1cccc(S(=O)(=O)N2C[C@@H](O)COC[C@H]3O[C@H](CC(=O)N4CCN(C)CC4)CC[C@@H]32)c1
FALSE

Next: COc1ccc(NC(=O)N[C@H]2C=C[C@H](CC(=O)NCc3ccccn3)O[C@H]2CO)cc1
FALSE

Next: C[C@@H]1CCCCO[C@@H](CN(C)C(=O)NC2CCCCC2)[C@H](C)CN([C@H](C)CO)C(=O)c2cc(NS(=O)(=O)c3ccc(Cl)cc3)ccc2O1
FALSE

Next: O=C(N[C@@H]1CC[C@@H](CC(=O)N2CCc3ccccc3C2)O[C@@H]1CO)C1CCOCC1
FALSE

Next: CCOc1ccc(CN2CCN(CCCc3ccccc3)C(CCO)C2)cc1 (stereo not given)
FALSE

Next: Nc1nonc1-n1nnc(C(=O)N/N=C/c2c[nH]c3ccccc23)c1-c1ccccc1
FALSE

Next: C[C@@H]1CN([C@@H](C)CO)C(=O)c2cc(N(C)C)ccc2O[C@@H](C)CCCCO[C@H]1CN(C)C(=O)CCCN(C)C
FALSE

Next: COc1cccc(S(=O)(=O)N2C[C@@H](O)COC[C@@H]3O[C@H](CC(=O)Nc4ccccc4)CC[C@H]32)c1
FALSE

Next: O=C(COC(=O)c1cc(-c2cccs2)nn1-c1ccccc1)Nc1cc([N+](=O)[O-])ccc1Cl
TRUE

Next: O=C(N/N=C/c1c[nH]c2ccccc12)c1cc2ccccc2o1
TRUE

Next: Cc1ccc(S(=O)(=O)NCC[C@H]2CC[C@H](NC(=O)c3ccccn3)[C@@H](CO)O2)cc1
FALSE

Next: Cc1cccc(S(=O)(=O)N2C[C@@H](O)COC[C@H]3O[C@H](CC(=O)Nc4ccc(-c5ccccc5)cc4)CC[C@@H]32)c1
TRUE

Next: Cc1ccccc1-c1ccc2c(c1)O[C@H](CN(C)Cc1ccc(C(=O)O)cc1)[C@@H](C)CN([C@H](C)CO)S2(=O)=O
FALSE

Next: CCNC(=O)c1cc2c(c(-c3cccc(C4=CCCC4)c3)n1)[C@H](CCO)N([S@@](=O)C(C)(C)C)C2
FALSE

Next: COc1cccc(-c2ccc3c(c2)[C@@H]2[C@@H](CCN2S(=O)(=O)C2=NC(C)C=N2)[C@@H](CO)N3C)c1 (stereo not given in full)
FALSE

Next: C/C=C/c1cnc2c(c1)C(=O)N([C@H](C)CO)C[C@H](C)[C@@H](CN(C)CC1CCOCC1)O2
FALSE

Next: O=C(O)CCC(=O)N(Cc1ccccc1)Cc1ccccc1
FALSE

Next: COc1ccc(Cl)cc1NC(=O)CN(C)C(=O)c1cc(-c2cccs2)nn1-c1ccccc1
FALSE

----------
# ASSAYED TARGET: Fibroblast growth factor 22 (Homo sapiens)
# ASSAY COMMENT: binders of human FGF22 protein, primary screen, FGF22 synaptogenesis inhibitor project, biophysical, thermal shift, single point (AID 651658)
# CONDITIONS USED: recombinant FGF22 thermal shift, SYPRO orange fluorescence; at 9.99 µM; active compounds read high; percent of sucrose octasulfate shift, DMSO zero
Among all 340,000 compounds or so, about 5,100 (1.5%) were called active. What follows is part of a selection rich in actives, with near analogues and random picks from the rest.
ENDPOINT NAME: activity (Tm shift, normalised) (%)
Please reply with the bare figure in % and do not write the unit itself.

# activity (Tm shift, normalised) lookup, item CNC[C@@H]1Oc2ccc(NC(=O)C3CCCCC3)cc2CC(=O)N([C@@H](C)CO)C[C@H]1C
0.125

Next: CCCC#Cc1cnc2c(c1)C(=O)N([C@H](C)CO)C[C@H](C)[C@H](CN(C)C(=O)Cc1ccncc1)O2
0.077

Next: CNC[C@H]1Oc2ccc(NC(=O)C3CCCCC3)cc2C(=O)N([C@H](C)CO)C[C@@H]1C
-0.27

Next: CNC[C@@H]1Oc2ccc(NC(=O)C3CCCCC3)cc2C(=O)N([C@@H](C)CO)C[C@H]1C
1.59

----------
# ASSAYED TARGET: Fibroblast growth factor 22 (Homo sapiens)
# ASSAY COMMENT: binders of human FGF22 protein, primary screen, FGF22 synaptogenesis inhibitor project, biophysical, thermal shift, single point (AID 651658)
# CONDITIONS USED: recombinant FGF22 thermal shift, SYPRO orange fluorescence; at 9.99 µM; active compounds read high; percent of sucrose octasulfate shift, DMSO zero
In all, about 340,000 compounds went through this assay and about 5,100 (1.5%) were called active. The sample holds actives, similar compounds and a random draw of the others, so the mix is not that of the screen.
ENDPOINT NAME: activity (Tm shift, normalised)

# activity (Tm shift, normalised) lookup, item C[C@@H]1CN([C@@H](C)CO)C(=O)c2cc(NC(=O)CCCCCC(=O)Nc3ccccc3N)ccc2O[C@@H](C)CCCCO[C@@H]1CN(C)CC1CCCCC1
-0.209% (inactive)

Next: COc1cccc(NC(=O)c2nn(-c3ccc(OC)cc3OC)c(=O)c3ccccc23)c1
43.4% (active)

Next: O=C(Cc1ccccn1)NCC[C@H]1CC[C@H](NC(=O)Nc2ccc(F)cc2)[C@@H](CO)O1
0.059% (inactive)

Next: Cc1c(CCOC(=O)CC23CC4CC(CC(C)(C4)C2)C3)sc[n+]1Cc1ccc([N+](=O)[O-])cc1
-0.223% (inactive)

Next: COc1ccc(NC(=O)Nc2ccc3c(c2)C(=O)N([C@H](C)CO)C[C@@H](C)[C@H](CN(C)CC2CCCCC2)OCCCC[C@@H](C)O3)cc1
-0.629% (inactive)

Next: COc1ccc(-n2nc(C(=O)Nc3cc(OC)c(OC)c(OC)c3)c3ccccc3c2=O)c(OC)c1
0.293% (inactive)

Next: CCN(c1ccccc1)S(=O)(=O)c1ccc(N)cc1
-0.161% (inactive)

Next: O=S(=O)(c1ccccc1)N(Cc1cccc(F)c1)c1ccccc1
-0.239% (inactive)
